B1: MIA2 (parent)
chain: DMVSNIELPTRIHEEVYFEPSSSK

- Variants of: B1
- protocol.notes: protein stability index of a GFP-peptide fusion (GPS, HEK-293T) (PSI 1-6); higher = more stable;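 note: lentivirally expressed fusions sorted by FACS into six bins by GFP to DsRed ratio, PSI derived from sequencing read proportions per bin multiplied by bin number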
- condition.context: c terminus: a fixed tail appended
Measured protein stability index, listed per entry for reference.
measured.attribute: protein stability index

1) P20Y	2.99
2) E14K	3.36
3) S4G	3.82
4) E15I	2.28
5) P20H	4.06
6) S22K	3.9
7) E14F	2.46
8) E7C	3.32
9) R11Y	3.26
10) R11M	4.16
11) L8C	4.02
12) E7M	3.29
13) E19P	3.52
